System: HL-60(TB) leukemia
Experiment: NCI tumour cell line growth inhibition, 48 h
Recorded TGI for the following compounds

# COMPOUND, OP, TGI (µM)
records = [
    ("CCNc1nc(N)c(C(=O)c2cccs2)s1", "=", 21.9),
    ("O=c1oc2ccccc2cc1-c1csc(Nc2cc(Cl)cc(Cl)c2)n1", ">", 100),
    ("O=C(Nc1ccc(Cl)cc1F)c1cc(F)ccc1O", "=", 3.45),
    ("COc1cc(/C=C/C=C2\\CCC/C(=C\\C=C\\c3ccc(O)c(OC)c3)C2=O)ccc1O", ">", 100),
    ("CCOc1ncn(-c2ccc(NC(=S)Nc3cnccn3)cc2)n1", ">", 10),
    ("COC(=O)C1=C([C@H]2COC(C)(C)O2)[C@H]2C[C@@H]1[C@@H]1OC(C)(C)O[C@@H]12", ">", 100),
    ("CCOC(=O)c1ccc(NC(=O)O/N=C(/Cl)C(C)C)cc1", "=", 3.26),
    ("COC1/C=C\\OC2(C)Oc3c(C)c(O)c4c(O)c(c(/C=N\\OCCCc5ccccc5)c(O)c4c3C2=O)NC(=O)/C(C)=C\\C=C/C(C)C(O)C(C)C(O)C(C)C(OC(C)=O)C1C (centres undefined)", "=", 5.38),
    ("COc1cc(-c2nc3ccccc3[nH]2)ccc1OCC(=O)N=Nc1c(O)[nH]c2ccc(Cl)cc12", "=", 4.42),
]

----------
System: MCF7 breast
Assay: NCI tumour cell line growth inhibition, 48 h; in the data active = GI50 below about 0.43 µM; inactive = the rest
Outcome codes: active, inactive

# COMPOUND, DISCRETE LABEL
measured = [
    ("Cc1cc(Nc2cc(CN3CCOCC3)c3nc(C)c(Cc4ccc(Cl)cc4F)n3n2)n[nH]1", "inactive"),
    ("CCCCCCCCCCCCOC1C(CNCC2OC3OC(C)(C)OC3C2NC(=O)Nc2ccc(C(F)(F)F)cc2)OC2OC(C)(C)OC21 (stereo not given)", "inactive"),
    ("COc1ccc(-c2nn(-c3ccc(NC(=O)Nc4ccc(Cl)c(Cl)c4)cc3)cc2-c2ccncc2)cc1Cl", "inactive"),
    ("COc1ccc(-c2ccc3ncc4c(c3c2)n(-c2ccc(N3CCNCC3)c(C(F)(F)F)c2)c(=O)n4C)cn1", "active"),
    ("C=CC(=O)NCCOc1cccc(Nc2cc(NCCCNC(=O)C3CCC3)c(Br)cn2)c1", "inactive"),
    ("COc1ccc2c(O)c(/C=C3\\N=Nc4ncccc43)oc2c1C[C@H]1CCNC[C@H]1F", "active"),
    ("Clc1nc(Cl)c2ncn(C/C=C/Cn3cnc4c(Cl)nc(Cl)nc43)c2n1", "inactive"),
    ("COc1cc2cn3c4ccc(O)cc4nc(N)c3c2cc1OC", "active"),
    ("Cc1cc(O)c(C2=NN(c3ccc(S(N)(=O)=O)cc3)C(c3ccccc3O)C2)cc1Cl (stereo not given)", "inactive"),
    ("O=[N+]([O-])c1cccc(/C=C/c2ccccn2)c1", "inactive"),
]

----------
System: HT29 colon
Assay: NCI tumour cell line growth inhibition, 48 h
Recorded TGI for the following compounds

# COMPOUND, TGI
measured = [
    ("O=c1c2[nH]c3ccccc3c2nc2n1CCS2", "> 100 µM"),
    ("COC(=O)c1ccc(/C=C2\\Cc3ccccc3C2=O)cc1", "> 100 µM"),
    ("COc1cc(C(C)(C)C)cc(OC)c1C(O)(c1c(OC)cc(C(C)(C)C)cc1OC)c1c(OC)cc(C(C)(C)C)cc1OC", "0.877 µM"),
    ("CC(C)(C)CC(C)(C)N(CSc1ccc(Cl)cc1)CSc1ccc(Cl)cc1", "9.18 µM"),
    ("COC(=O)C1=C([C@H]2COC(C)(C)O2)[C@H]2C[C@@H]1[C@@H]1OC(C)(C)O[C@@H]12", "> 100 µM"),
    ("O=C(O)CC(C(=O)O)C1c2ccccc2-c2ccccc21 (stereo not given)", "> 100 µM"),
    ("CCCC(=O)OCC1(CO)C/C(=C/CC(C(C)C)C(C)C)C(=O)O1 (stereo not given)", "> 100 µM"),
    ("NC(=S)N/N=C1\\C(=O)N(CCc2ccccc2)C(=O)C1C(=O)NCCc1ccccc1 (stereo not given)", "> 100 µM"),
    ("CCOC(=O)NC(Nc1ccc(F)c(F)c1)(C(=O)OCC)C(F)(F)F (stereo not given)", "> 100 µM"),
    ("FC(F)(F)c1[nH]ncc1-c1nc2c(N3CCCCC3)cc3[nH]ncc3c2c2c1CCCC2", "> 50 µM"),
    ("CC(C)(C)C1(c2ccc(C3(c4ccccc4)Oc4ccccc4S3)[nH]2)Oc2ccccc2S1 (stereo not given)", "> 100 µM"),
    ("CNS(=O)(=O)c1ccccc1C(=N)c1ccccc1", "> 100 µM"),
    ("C[n+]1c2ccccc2c(C(=O)NC(CCCN=C(N)N)C(=O)O)c2ccccc21 (stereo not given)", "> 100 µM"),
    ("CC1=C(C(=O)NNC(=O)C(N)=O)CC(C(=O)NNC(=O)C(N)=O)=C(C)N1", "> 100 µM"),
    ("Clc1nc(Cl)c2ncn(C/C=C/Cn3cnc4c(Cl)nc(Cl)nc43)c2n1", "29.9 µM"),
    ("COc1cc(-c2cc(-c3nc4cc(Cl)c(Cl)cc4[nH]3)[nH]n2)cc(OC)c1OC", "12.5 µM"),
    ("C/C1=N\\NC(=O)c2ccccc2C(=O)N/N=C(\\C)c2cccc1n2.O=[N+]([O-])[O-].[Zn+2]", "> 100 µM"),
    ("Cc1cc(S(=O)(=O)Nc2nc3ccccc3[nH]2)c(S)cc1Cl", "> 100 µM"),
    ("Nc1cc(S(=O)(=O)O)cc2cc(S(=O)(=O)O)c(N=Nc3ccc(-c4ccc(N=Nc5c(S(=O)(=O)O)cc6cc(S(=O)(=O)O)cc(N)c6c5O)cc4)cc3)c(O)c12", "> 100 µM"),
    ("Cc1ccc(P(c2ccc(C)cc2)c2ccc(C)cc2)cc1", "> 100 µM"),
]

----------
Recorded TGI for the following molecules
Test system: SF-295 CNS
Experiment: NCI tumour cell line growth inhibition, 48 h
READOUT: TGI

# MOLECULE, REPORTED RESULT
measured = [
    ("O=[N+]([O-])c1ccc(/C=N\\Nc2ccc([N+](=O)[O-])cn2)cc1", "> 100 µM"),
    ("Fc1ccc2c(c1)SC1Oc3ccccc3-c3c1c-2nn3-c1ccccc1 (stereo not drawn)", "> 100 µM"),
    ("Cc1ccc(S(=O)(=O)NC(=O)NC(C(=O)O)C(C)O)cc1 (stereo not drawn)", "> 100 µM"),
]

----------
System: SK-MEL-2 melanoma
Assay: NCI tumour cell line growth inhibition, 48 h
Recorded TGI for the following compounds
READOUT: TGI

# COMPOUND, STUDY TARGET, REPORTED RESULT
records = [
    ("CC(C)(O)/C=C\\P(C)(=O)c1ccccc1 (stereo not given)", "SK-MEL-2 melanoma", "> 100 µM"),
    ("CCOC(=O)C1(Br)C(c2ccccc2)NC(=O)N(C2OC(COC(=O)c3ccccc3)C(OC(=O)c3ccccc3)C2OC(=O)c2ccccc2)C1(C)Br (stereo not given)", "SK-MEL-2 melanoma", "> 100 µM"),
    ("N#C/C(=C\\c1ccc(F)cc1)c1nc2ccccc2c(=O)[nH]1", "SK-MEL-2 melanoma", "> 100 µM"),
    ("C/C=C/C(=O)[C@@H](O)C(C)C", "SK-MEL-2 melanoma", "> 100 µM"),
    ("C=CC1(c2ccccc2Cl)N/C(=C/OCC)CO1 (stereo not given)", "SK-MEL-2 melanoma", "> 100 µM"),
    ("C=C(C)C(=O)OC1C(C(C)CCCO)=C(CO)CC2OC(=O)C(=C)C21 (stereo not given)", "SK-MEL-2 melanoma", "61.7 µM"),
    ("COc1cc(CNc2nc3cc(N)cc(N)c3nc2-c2ccccc2)cc(OC)c1OC", "SK-MEL-2 melanoma", "> 50 µM"),
    ("NCCn1ccc(NC(c2ccccc2)(c2ccccc2)c2ccccc2)nc1=O", "SK-MEL-2 melanoma", "33.4 µM"),
    ("Cc1ccc(Nc2[nH]c(C(=O)c3ccc(Cl)cc3)c(N)c2C(=S)Nc2ccccc2)nc1", "SK-MEL-2 melanoma", "> 100 µM"),
    ("O=C1c2ccc3c4c(ccc(c24)C(=O)N1CCCNCc1ccccc1)C(=O)N(CCCNCc1ccccc1)C3=O", "SK-MEL-2 melanoma", "0.363 µM"),
    ("Cc1cc(C)c(S(=O)(=O)N(CCCCCCN)OCCCN)c(C)c1", "SK-MEL-2 melanoma", "36 µM"),
    ("CCN(CC)CCSc1n[nH]c(-c2c[nH]c3nc(C)ccc3c2=O)n1", "SK-MEL-2 melanoma", "> 100 µM"),
    ("CSC1=C(C#N)C(=O)N(c2ccc(Cl)cc2)C(=O)C1C#N (stereo not given)", "SK-MEL-2 melanoma", "> 100 µM"),
    ("COc1ccc2c(c1)CC[C@@H]1[C@@H]2CC[C@]2(C)c3[nH]ncc3C[C@@H]12", "SK-MEL-2 melanoma", "> 50 µM"),
    ("c1ccc(CCCNc2nnnc3ccccc23)cc1", "SK-MEL-2 melanoma", "> 100 µM"),
    ("O=[N+]([O-])c1ccc(/C=N\\Nc2ccc([N+](=O)[O-])cn2)cc1", "SK-MEL-2 melanoma", "> 100 µM"),
    ("CN(C)c1ccc(/C=C/c2ccnc3ccc4ccccc4c23)cc1", "SK-MEL-2 melanoma", "> 100 µM"),
    ("Brc1cccc(Nc2ncnc3sc4c(c23)CCC(Nc2cccc(Br)c2)C4)c1 (stereo not given)", "SK-MEL-2 melanoma", "> 100 µM"),
    ("CCOc1ncn(-c2ccc(NC(=S)Nc3cnccn3)cc2)n1", "SK-MEL-2 melanoma", "> 10 µM"),
    ("NC1=NN(c2ccccc2)C(=O)C1/C(=N\\NC(=O)c1cc2ccccc2cc1O)C(=O)Nc1nc([N+](=O)[O-])cs1 (stereo not given)", "SK-MEL-2 melanoma", "> 86.6 µM"),
    ("N.N.N.N.N.N#N.[Cl-].[Os+7]", "SK-MEL-2 melanoma", "> 100 µM"),
    ("Cc1ccc(/C=N/Nc2cc(C)c3ccccc3n2)s1", "SK-MEL-2 melanoma", "> 100 µM"),
    ("CCOc1ccccc1NC(=O)C(=O)C(C(=O)c1ccc2ccccc2c1)C1OC(=O)c2ccccc21 (stereo not given)", "SK-MEL-2 melanoma", "29.4 µM"),
    ("Cc1cc(Nc2cc(CN3CCOCC3)c3nc(C)c(Cc4ccc(Cl)cc4F)n3n2)n[nH]1", "SK-MEL-2 melanoma", "7.64 µM"),
    ("CN/C=C(/c1ccc(OC)cc1)C(O)c1ccc(OC)c(OC)c1 (stereo not given)", "SK-MEL-2 melanoma", "> 100 µM"),
    ("[C-]#[O+].[C-]#[O+].[Ir].[O-]c1ccc2ccccc2c1N=Nc1ccccc1", "SK-MEL-2 melanoma", "49.1 µM"),
    ("CCC(C(=O)c1cccs1)C(O)(C(F)(F)F)C(F)(F)F (stereo not given)", "SK-MEL-2 melanoma", "> 100 µM"),
    ("CC(C)(C)OC(=O)NNC(=O)C1Cc2ccccc2OC1=O (stereo not given)", "SK-MEL-2 melanoma", "> 100 µM"),
    ("C[C@@H]1[C@H]2[C@H](C=C3[C@@H]4CC[C@H]5Cc6nc7c(nc6C[C@]5(C)[C@H]4C[C@@H](O)[C@@]32C)C[C@@H]2CC[C@H]3C4=C[C@@H]5O[C@@]6(CC[C@](C)(CO)O6)[C@@H](C)[C@@]5(O)[C@@]4(C)[C@H](O)C[C@@H]3[C@@]2(C)C7)O[C@]12CCC(C)(C)O2", "SK-MEL-2 melanoma", "18 µM"),
    ("COc1ccc2c(c1)C(=O)c1c-2c(OCCN(C)C)nc2cc(OC)ccc12", "SK-MEL-2 melanoma", "10.3 µM"),
    ("CCOC(=O)/C(=C\\c1ccnc2ccccc12)P(=O)(OCC)OCC", "SK-MEL-2 melanoma", "4.49 µM"),
    ("CCNc1nc(N)c(C(=O)c2cccs2)s1", "SK-MEL-2 melanoma", "45 µM"),
    ("O=c1c2cc(Br)ccc2nc(-c2ccccc2)n1NCC1(O)OCC(O)C(O)C1O (stereo not given)", "SK-MEL-2 melanoma", "> 100 µM"),
    ("CN(C)CCn1c(=O)oc2cc(C(=O)CN3CCOCC3)ccc21", "SK-MEL-2 melanoma", "> 100 µM"),
    ("C[n+]1c2ccccc2c(C(=O)NC(CCCN=C(N)N)C(=O)O)c2ccccc21 (stereo not given)", "SK-MEL-2 melanoma", "> 100 µM"),
    ("CCc1nc(-n2c(CC)nc3ccccc3c2=O)nc(N)c1-c1ccc(Cl)cc1", "SK-MEL-2 melanoma", "> 100 µM"),
    ("Clc1nc(Cl)c2ncn(C/C=C/Cn3cnc4c(Cl)nc(Cl)nc43)c2n1", "SK-MEL-2 melanoma", "29.3 µM"),
    ("CC(=O)/C(N=Nc1ccc(-n2c(C)nc3ccc(Br)cc3c2=O)cc1)=C(/C)O", "SK-MEL-2 melanoma", "> 100 µM"),
    ("COc1ccc([C@@H]2CC(=O)NCCCNCCCCNCCCN2)cc1", "SK-MEL-2 melanoma", "> 100 µM"),
    ("CN(CCCCN1CCCC1)CCCCN(C)C(=O)Cc1ccc(Cl)c(Cl)c1", "SK-MEL-2 melanoma", "19.7 µM"),
]
